target-of-assay: T1, SNAP25 Peptide 2 (PEP2) (Homo sapiens, UniProt P60880 SEQ:1-37)
T1 chain: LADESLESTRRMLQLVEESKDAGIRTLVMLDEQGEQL
assay-text: ELONA
endpoint-name: binding signal (ELISA signal)
Give just the number in ELISA signal; leave the unit off.

## Input Quick one: binding signal for PEP 2.10 (ssDNA, W indole, X amine, Y phenol modified dU [14,19,24,35,40]) DNA: TTTTTAAGCCCACTGGCCTGTGGTCAGCGAACTGTGCGCTGGTGGGCCCATG ?
## Output 43

## Input Here is the next binder: PEP 2.08 (ssDNA, W indole, X amine, Y phenol modified dU [15,16,17,19,20,24,27,43,46]) DNA: TTTTTAAGCCCACGTTTGTTCGGTGGTCACAGCACGCCACGGTCGTGCCATG
## Output 65

## Input Here is the next binder: PEP 2.04 (ssDNA, W indole, X amine, Y phenol modified dU [15,19,24,27,40,43,46]) DNA: TTTTTAACACGACATGGCTGTGGTCATCACAGCGCACCATTGTCGTGCCATG
## Output 190

## Input Here is the next binder: PEP 2.03 (ssDNA, W indole, X amine, Y phenol modified dU [16,19,24,27,43,46]) DNA: TTTTTAACACGACGGTGCTGTGCTGGTCACAGCACGCGCGCGTCGTGCCATG
## Output 221

## Input Here is the next binder: PEP 2.05 (ssDNA, W indole, X amine, Y phenol modified dU [16,19,24,43,46]) DNA: TTTTTAAGCCCACCCTACTGTGGTCACCACAGTGCAAGCCCGTCGTGCCATG
## Output 159

## Input Here is the next binder: PEP 2.11 (ssDNA, W indole, X amine, Y phenol modified dU [14,15,19,27]) DNA: TTTTTAAGCCCACTTGGCTGTGCACATCACAGAACAAGCAGGTGGGCCCATG
## Output 40

## Input Here is the next binder: PEP 2.07 (ssDNA, W indole, X amine, Y phenol modified dU [15,19,24,36,43,46]) DNA: TTTTTAACACGACGTCGCTGTGGTCAACGAACAGATACAACGTCGTGCCATG
## Output 65

## Input Here is the next binder: PEP 2.09 (ssDNA, W indole, X amine, Y phenol modified dU [15,19,20,24,27,35,38,40]) DNA: TTTTTAACACGACATAGGTTCGCTGGTCACAGAATGTTGTGGTGGGCCCATG
## Output 46

## Input Here is the next binder: PEP 2.13 (ssDNA, W indole, X amine, Y phenol modified dU [15,19,24,27,34,35,43,46]) DNA: TTTTTAAGCCCACATGCCTGTGGTCATCGAACATTGGGCCGGTCGTGCCATG
## Output 36

## Input Here is the next binder: PEP 2.06 (ssDNA, W indole, X amine, Y phenol modified dU [19,24,35,38,40,43,46]) DNA: TTTTTAACACGACCGGCCTGTGGTCAGCACAGACTGTTGTGGTCGTGCCATG
## Output 102

## Input Here is the next binder: PEP 2.12 (ssDNA, W indole, X amine, Y phenol modified dU [14,19,23,25,38,40,43,46]) DNA: TTTTTAACACGACTAGACTGTGTATCCCACAGGGCAATGTGGTCGTGCCATG
## Output 37

## Input Here is the next binder: PEP 2.18 (ssDNA, W indole, X amine, Y phenol modified dU [15Y,16W,19Y,24W,27X,35Y,43X,46Y]) DNA: TTTTTAACACGACGTTACTGTGGTCATCACAGGATGAGCCTGTCGTGCCATG
## Output 26

## Input Here is the next binder: PEP 2.17 (ssDNA, W indole, X amine, Y phenol modified dU [15,16,19,24,35,43,46]) DNA: TTTTTAACACGACGTTACTGTGGTCACCACAGGATGAGGCTGTCGTGCCATG
## Output 30

## Input Here is the next binder: PEP 2.01 (ssDNA, W indole, X amine, Y phenol modified dU [15,16,19,24,35,43,46]) DNA: TTTTTAACACGACGTTACTGTGGTCACCACAGGATGAGCCTGTCGTGCCATG
## Output 592

## Input Here is the next binder: PEP 2.15 (ssDNA, W indole, X amine, Y phenol modified dU [15,16,19,24,35,40,43,46]) DNA: TTTTTAACACGACGTTACTGTGGTCACCACAGGATGAGCTTGTCGTGCCATG
## Output 36
